Measured values drawn from the supplement of paper PMC6555819 for this set.

Please go through the items and note down their PBM binding z-score.
- System: PPARg:RXRa DBDmut IVT, anti-RXR (DBD mutation: RXRa K156A/R161A, NR concentration 270 nM, RXRa partner concentration 90 nM)
- experiment notes: PBM binding z-score (relative to random genomic background probes); higher = stronger binding; sequences stand for … in GC…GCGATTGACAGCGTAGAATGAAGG
Numbers only.

In the examples that follow, each entry is paired with its recorded PBM binding z-score.
{"columns": ["sequence content", "PBM binding z-score"],
 "data": [
  ["ACTATTAGTTGACTTAGTGCAACCGATACGACGC", 0.167],
  ["CCTTACGAGTCAAGGTTATAGCACGGGTGGTACG", -0.121]
]}

Please go through the list and note PBM binding z-score for each sequence.
1. CAAACTAGGTCAAGAGGCCAAAGTCCGCTTCCCG
2. CCGATTGGGGCAGAAAGGTTACCATACCATCCGG
3. CCTATTAGTTGACCACAAGGGCAACCGAAGCTCG
4. CTAGCAAGGTGAACAAGGTCGTTGATTACTATTC
5. TAGCCTAGGTCAGATCGTGCCAGTATACGCTATA
6. CTCGACAGGTCGTGCTCAGGTGAGTATACCAAAC
7. CTCGAAAGGTCGGTTGAGGTGCGTATACGGATAA
8. CCGACTGGGGCATAAGGTTAGCATAAGCCAGCCC

Result:
1: 8.03; 2: 0.436; 3: 0.687; 4: 2.52; 5: 0.562; 6: 0.245; 7: -0.22; 8: 3.03

Please go through the list and note PBM binding z-score for each sequence.
1. ACAGACAGGTGATGTAGGTAACTCAGGCTATCAT
2. ATCTCGAGGTAAAGATAGTTCAGTGAATGCAAAT
3. GCATATAGGTAATACAAGGTGACAGTCCGATTGT
4. CCAGACAGGTGAAAGGAAACTCAGTCTGGTACGC

Result:
1: 1.26; 2: -0.0258; 3: 4.45; 4: 1.07

Please go through the list and note PBM binding z-score for each sequence.
1. GCTTGTAGGTCAAGGTTAAGAAAGACTAAGCTAA
2. ATACCCAGGTGATCGTGAGGTCGTTGATACTAAC
3. TAGACTAGGTCATTGGGCCAGTATAGTACGCATC
4. AGTCAATGTTCACTAGGTAACGTAAGATTCAGCT
5. CTCGAATGGTCGGTTGAGGTGAGTATACGGATAA
6. TCTATTAGTTGAAGGGAAACCGACGAGTCCGTTT

Result:
[7.82, -0.291, 5.72, 1.92, -0.784, 2.49]

Please go through the list and note PBM binding z-score for each sequence.
1. AGAACGAGGGCCCGCTGAGTTGATAGCAGAGTAG
2. CGTCCAAGGTCCAAGGTCAGTGAAGAGATGACGG
3. GCGACTGGGGGATCAGCAGGTTACCATAACTTAA
4. CCTAGTTGGTCAGGAGGGCACACACCGGATATGA

Result:
1: -0.75; 2: -0.345; 3: 0.873; 4: 0.374

Please go through the list and note PBM binding z-score for each sequence.
1. CCTTACGGCTCACGAGGTTATAGCACGACGAGCG
2. CGTCCCAGGTCAGAGAGGTCAGTGAATGCCGAGT

Result:
1. -0.0471
2. 1.78

Please go through the list and note PBM binding z-score for each sequence.
1. GTACCAAGGTGAATAGGTTGTTGATGAGTAGGCG
2. ACTAGTTGGACAGCTGAGGTCACACACAATTCGG
3. TGTCAAAGTTCAAAGGTAGCGTAAGTATCCACAC
4. CAGCCTAGGTCAGGGCCAGTATTGGAGGAACGTT
5. GCGACTGGGCCATCAGCAGGTTACCATAACTTAA
6. CCCACTGGGCCACGAAAGGTCATTGATTCAGTGA

Result:
1. 1.75
2. 0.874
3. 0.0975
4. 1.37
5. 2.78
6. 4.55

Please go through the list and note PBM binding z-score for each sequence.
1. GCTTACGGGTCAAAGTTTATAGCATGAATAGAAT
2. ATATATAGGTTATCGGGTCATTCAGTTTGCGCAT
3. ATATGTAGGTTAAGGGTCATTCTGGTTGGTTCGC
4. CGTCCATGGTCAATGCTAGGTCAGTGAAAGCATT
5. ATCTCTAGGTAAGACTCAGTTCCGTGAAGAACGC
6. ATCGAAATGTCGACGAGGTGAGTATACACCGTTT

Result:
1: 4.19; 2: 7.55; 3: 7.57; 4: 0.278; 5: 1.81; 6: -0.343

Please go through the list and note PBM binding z-score for each sequence.
1. ATCGAAAGGTCGTGAGGAGAGTATACAGAAAGGC
2. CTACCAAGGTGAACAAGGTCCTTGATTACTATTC
3. TCGAGTCGGTTAGTCGGGGCATTCAGCCAACATA

Result:
0.395
2.33
0.436

---

- Tested on: RXRa DBDmut IVT, anti-RXR (DBD mutation: RXRa K156A/R161A, NR concentration 90 nM)
- experiment notes: PBM binding z-score (relative to random genomic background probes); higher = stronger binding; sequences stand for … in GC…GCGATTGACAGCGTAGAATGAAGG
Please go through the items and note down their PBM binding z-score.
One number for each entry.

In the examples that follow, each entry is paired with its recorded PBM binding z-score.
{"columns": ["sequence content", "reported property", "endpoint result"],
 "data": [
  ["CGTCCAAGGTCAGAGAGGTCAGTCAATGCCGAGT", "PBM binding z-score", 3.32],
  ["CTTTACGGGTCACTGACAGGTTATAGCATTTGGA", "PBM binding z-score", 2.54],
  ["CCTACTTGGCCACGAAAGGTCATTGATTCAGTGA", "PBM binding z-score", 1.36],
  ["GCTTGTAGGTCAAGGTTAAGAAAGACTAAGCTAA", "PBM binding z-score", 1.26],
  ["ATATGTAGGCTATCGGGTCATTCAGTTTGCGCAT", "PBM binding z-score", 1.1]
]}

Please go through the list and note PBM binding z-score for each sequence.
1. AGTCAAAGTCCAGGACGAGGTAACGTAAAGCACG
2. CCTACTGGGCCATTCAGAGGTCTTTGATCATATG
3. GGAACGAGGGCAAGTTGATAGCGGAGTTTGATGG

Result:
1. -0.0759
2. -0.165
3. 2.31

---

Please go through the items and note down their PBM binding z-score.
- Tested on: PPARg:RXRa IVT, anti-PPARg (NR concentration 270 nM, RXRa partner concentration 90 nM)
- experiment notes: PBM binding z-score (relative to random genomic background probes); higher = stronger binding; sequences stand for … in GC…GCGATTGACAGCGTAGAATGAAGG

In the examples that follow, each entry is paired with its recorded PBM binding z-score.
{"columns": ["sequence content", "target of assay", "PBM binding z-score"],
 "data": [
  ["AGAATGAAGTTACCAAAGATCAGGGAAACGCTTG", "PPARg:RXRa IVT, anti-PPARg (NR concentration 270 nM, RXRa partner concentration 90 nM)", -0.423],
  ["CCTATTAGTTGACCATAAGGGCAACCGCAGCTCG", "PPARg:RXRa IVT, anti-PPARg (NR concentration 270 nM, RXRa partner concentration 90 nM)", 0.808],
  ["TCTAGCAGGACAGAGGGTCACTCAAGAGGTACGG", "PPARg:RXRa IVT, anti-PPARg (NR concentration 270 nM, RXRa partner concentration 90 nM)", 0.465],
  ["ACTAGTTGGTCAGCTGAGGTCATACACAATTCGG", "PPARg:RXRa IVT, anti-PPARg (NR concentration 270 nM, RXRa partner concentration 90 nM)", 2.35],
  ["TTACCAAGGTGAGCTGAGGTCGTTGACCCAACTC", "PPARg:RXRa IVT, anti-PPARg (NR concentration 270 nM, RXRa partner concentration 90 nM)", 2.03]
]}

Alright, here's another sequence for you.
Task: Form field: PBM binding z-score recorded for "CGAACGAGGGCATGAGGTGATAGCAAATGCCGAT" with PPARg:RXRa IVT, anti-PPARg (NR concentration 270 nM, RXRa partner concentration 90 nM) (enter value)
Result: 3.37

---

Please go through the items and note down their PBM binding z-score.
- Tested on: PPARa:RXRa (NR concentration 270 nM, RXRa partner concentration 90 nM)
- experiment notes: PBM binding z-score (relative to random genomic background probes); higher = stronger binding; sequences stand for … in GC…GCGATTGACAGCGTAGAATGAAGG
Numbers only.

{"columns": ["sequence content", "endpoint result"],
 "data": [
  ["TCATATAGGTAAATGCTACGTGAAAGTCCGATCT", 0.91],
  ["CCTAGTCGGTCAAGGTCACACACGCTATAGGTAC", 4.61],
  ["CATACAGGGTCAGATAGGCCAGAGTAGGGACGGC", 4.26],
  ["TCATATAGGTAAACAGGTGACAGTCCGTAAGTTA", 2.24],
  ["GCAGACAGGTGTAACGCAGGTAACTCAGGGTGGC", -0.721]
]}

Please go through the list and note PBM binding z-score for each sequence.
1. GCTAGTTGGTCAGTAAAAGGACACACACCGGTCG
2. TGAATGAGGTTATAAGATCATGGAACGTTGCAAA
3. TAGCCTTGGTCATGCGGGCCAGTATAGTGTCGGC

Result:
[-0.104, 3.04, -0.707]

Please go through the list and note PBM binding z-score for each sequence.
1. ATCTCTAGGTAAGACTCAGTTCAGTGTAGAACGC
2. AGAATTAGGTTATACGTAGATCAGGGAAGAAAGT
3. CCTCGGAGGACAGACGGTCAGAGCTGTCCGCTTT
4. TCTCGGAGGACACGAAGGTCAGAGATTTCCAGAG

Result:
[0.0925, 2.29, -0.791, 1.83]
